FYI, the data here is from patent US20090088457A1.

molecular target: recombinant human renin (Homo sapiens); assay: Primary renin inhibition assay: IC50 in buffer, 384 well MTP (AngI quantified by EIA); details: human tetradecapeptide substrate, 37° C. for 3 h
Sequence (P00797 67-406): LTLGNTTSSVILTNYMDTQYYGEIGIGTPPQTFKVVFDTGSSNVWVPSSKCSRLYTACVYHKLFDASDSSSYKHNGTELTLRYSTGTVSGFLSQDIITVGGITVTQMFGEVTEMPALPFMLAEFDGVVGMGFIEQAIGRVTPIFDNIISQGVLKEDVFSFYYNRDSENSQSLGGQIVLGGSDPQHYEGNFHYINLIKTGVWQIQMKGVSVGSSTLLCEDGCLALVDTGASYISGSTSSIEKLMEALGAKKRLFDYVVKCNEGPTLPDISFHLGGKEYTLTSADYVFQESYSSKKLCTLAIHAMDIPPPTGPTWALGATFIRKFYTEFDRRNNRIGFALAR
Measured endpoint: IC50 (nM)
Value expressed in nM; do not type the unit.

In the examples that follow, each entry is paired with its recorded IC50.
COCCc1ccc(Cl)c(CN(C(=O)[C@@H](CN)Cc2ccc(OCCOc3c(Cl)cc(C)cc3Cl)nc2)C2CC2)c1; 0.2
COCCc1ccc(Cl)c(CN(C(=O)[C@@H](CN)Cc2ccc(N3CC[C@H](Oc4c(Cl)cc(C)cc4Cl)C3)nc2)C2CC2)c1; 0.3
Cc1cccc(CN(C(=O)C(CN)Cc2cnc(OCCOc3c(F)ccc(F)c3Cl)s2)C2CC2)c1C (racemic); 7.8

Query compound follows.
recombinant human renin (Homo sapiens) data for "COCCc1ccc(Cl)c(CN(C(=O)[C@@H](CN)Cc2ccc(N3CC[C@@H](Oc4c(Cl)cc(C)cc4Cl)C3)nc2)C2CC2)c1" ; its IC50: 0.5
